Every entry's value here was drawn from PubChem BioAssay AID1963438.

tested on: NCI-H510 multicellular tumor spheroid growth, % test/control; assay: Anticancer human tumor NCI-H510 cell line growth inhibition [Asc]; conditions: curve of first compound; second compound 1 µM;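 note: spheroids exposed to agents for 7 days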
endpointLabel: IC50

Considering CCN1C(C(=O)NC23CCC(C(=O)O)(CC2)CC3)C(c2cccc(Cl)c2F)C2(C(=O)Nc3cc(Cl)ccc32)C12CCCCC2 (stereo not drawn) + Cc1c(S(C)(=O)=O)c(-c2cc(F)cc(N3CCN(c4ccc(NS(=O)(=O)c5ccc(NC(CCN6CCC(C(=O)OCCCP(=O)(O)O)CC6)CSc6ccccc6)c(S(=O)(=O)C(F)(F)F)c5)cc4)CC3)c2)c(-c2ccc(Cl)cc2)n1C(C)C , its IC50 with NCI-H510 multicellular tumor spheroid growth, % test/control was recorded as > 3000 nM

Considering CCN1C(C(=O)NC23CCC(C(=O)O)(CC2)CC3)C(c2cccc(Cl)c2F)C2(C(=O)Nc3cc(Cl)ccc32)C12CCCCC2 (stereo not drawn) + CNC(C)C(=O)NC1CN(S(=O)(=O)c2cccc(S(=O)(=O)N3CCC4CCC(C(=O)NC(c5ccccc5)c5ccccc5)N4C(=O)C(NC(=O)C(C)NC)C3)c2)CCC2CCC(C(=O)NC(c3ccccc3)c3ccccc3)N2C1=O , its IC50 with NCI-H510 multicellular tumor spheroid growth, % test/control was recorded as > 3000 nM

Considering O=C(c1cc(Cc2n[nH]c(=O)c3ccccc23)ccc1F)N1CCN(C(=O)C2CC2)CC1 + Cc1c(S(C)(=O)=O)c(-c2cc(F)cc(N3CCN(c4ccc(NS(=O)(=O)c5ccc(NC(CCN6CCC(C(=O)OCCCP(=O)(O)O)CC6)CSc6ccccc6)c(S(=O)(=O)C(F)(F)F)c5)cc4)CC3)c2)c(-c2ccc(Cl)cc2)n1C(C)C , its IC50 with NCI-H510 multicellular tumor spheroid growth, % test/control was recorded as 1490 nM

----------
system: NCI-H510 multicellular tumor spheroid growth, % test/control; assay: Anticancer human tumor NCI-H510 cell line growth inhibition [Asc]; settings: second compound 3 µM; first compound 0.0316 µM; active = viability on the fitted dose curve at most 10% of control; inactive = the rest;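 note: spheroids exposed to agents for 7 days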
Field 'call' accepts 1 (active), -1 (inactive)

Query: Tell me the recorded outcome of this test for C#Cc1c(F)ccc2cc(O)cc(-c3ncc4c(N5CC6CCC(C5)N6)nc(OCC56CCCN5CC(F)C6)nc4c3F)c12 (configuration not stated) + CCN1C(C(=O)NC23CCC(C(=O)O)(CC2)CC3)C(c2cccc(Cl)c2F)C2(C(=O)Nc3cc(Cl)ccc32)C12CCCCC2 .
Result: -1

Query: Tell me the recorded outcome of this test for Cn1ncnc1[C@H]1c2n[nH]c(=O)c3cc(F)cc(c23)N[C@@H]1c1ccc(F)cc1 + CCN1C(C(=O)NC23CCC(C(=O)O)(CC2)CC3)C(c2cccc(Cl)c2F)C2(C(=O)Nc3cc(Cl)ccc32)C12CCCCC2 .
Result: 1

----------
system: NCI-H510 multicellular tumor spheroid growth, % test/control; experiment: Anticancer human tumor NCI-H510 cell line growth inhibition [Asc]; details: second compound 0.0949 µM; first compound 0.0316 µM; stronger effect = lower value;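 note: spheroids exposed to agents for 7 days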;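 for viability, T/C: 100% = DMSO vehicle control wells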
endpointLabel: viability, T/C (%)
Output spec: scalar in %, unitless text.

Considering O=C(c1ccc(F)c(F)c1Nc1ccc(I)cc1F)N1CC(O)([C@@H]2CCCCN2)C1 + CCN1C(C(=O)NC23CCC(C(=O)O)(CC2)CC3)C(c2cccc(Cl)c2F)C2(C(=O)Nc3cc(Cl)ccc32)C12CCCCC2 , its viability, T/C with NCI-H510 multicellular tumor spheroid growth, % test/control was recorded as 105

Considering C=C(F)C(=O)N1CCN(c2nc(OCC3CCCN3C)nc3c2CCN(c2cccc4cccc(Cl)c24)C3)CC1CC#N (stereo not given) + CCN1C(C(=O)NC23CCC(C(=O)O)(CC2)CC3)C(c2cccc(Cl)c2F)C2(C(=O)Nc3cc(Cl)ccc32)C12CCCCC2 , its viability, T/C with NCI-H510 multicellular tumor spheroid growth, % test/control was recorded as 78.5

Considering C#Cc1c(F)ccc2cc(O)cc(-c3ncc4c(N5CC6CCC(C5)N6)nc(OCC56CCCN5CC(F)C6)nc4c3F)c12 (stereo not given) + CCN1C(C(=O)NC23CCC(C(=O)O)(CC2)CC3)C(c2cccc(Cl)c2F)C2(C(=O)Nc3cc(Cl)ccc32)C12CCCCC2 , its viability, T/C with NCI-H510 multicellular tumor spheroid growth, % test/control was recorded as 93.8

Considering CNC(C)C(=O)NC1CN(S(=O)(=O)c2cccc(S(=O)(=O)N3CCC4CCC(C(=O)NC(c5ccccc5)c5ccccc5)N4C(=O)C(NC(=O)C(C)NC)C3)c2)CCC2CCC(C(=O)NC(c3ccccc3)c3ccccc3)N2C1=O (stereo not given) + CCN1C(C(=O)NC23CCC(C(=O)O)(CC2)CC3)C(c2cccc(Cl)c2F)C2(C(=O)Nc3cc(Cl)ccc32)C12CCCCC2 , its viability, T/C with NCI-H510 multicellular tumor spheroid growth, % test/control was recorded as 87.8

Considering O=C(c1cc(Cc2n[nH]c(=O)c3ccccc23)ccc1F)N1CCN(C(=O)C2CC2)CC1 + CCN1C(C(=O)NC23CCC(C(=O)O)(CC2)CC3)C(c2cccc(Cl)c2F)C2(C(=O)Nc3cc(Cl)ccc32)C12CCCCC2 , its viability, T/C with NCI-H510 multicellular tumor spheroid growth, % test/control was recorded as 81.3

Considering NC1CCC(NC2CC2c2ccccc2)CC1 (stereo not given) + CCN1C(C(=O)NC23CCC(C(=O)O)(CC2)CC3)C(c2cccc(Cl)c2F)C2(C(=O)Nc3cc(Cl)ccc32)C12CCCCC2 , its viability, T/C with NCI-H510 multicellular tumor spheroid growth, % test/control was recorded as 60.6

Considering C=CC(=O)N1CCN(c2nc(=O)n(-c3c(C)ccnc3C(C)C)c3nc(-c4c(O)cccc4F)c(F)cc23)C(C)C1 (stereo not given) + CCN1C(C(=O)NC23CCC(C(=O)O)(CC2)CC3)C(c2cccc(Cl)c2F)C2(C(=O)Nc3cc(Cl)ccc32)C12CCCCC2 , its viability, T/C with NCI-H510 multicellular tumor spheroid growth, % test/control was recorded as 117

Considering CCN1CCN(Cc2ccc(Nc3ncc(F)c(-c4cc(F)c5nc(C)n(C(C)C)c5c4)n3)nc2)CC1 + CCN1C(C(=O)NC23CCC(C(=O)O)(CC2)CC3)C(c2cccc(Cl)c2F)C2(C(=O)Nc3cc(Cl)ccc32)C12CCCCC2 , its viability, T/C with NCI-H510 multicellular tumor spheroid growth, % test/control was recorded as 121

Considering Cn1ncnc1[C@H]1c2n[nH]c(=O)c3cc(F)cc(c23)N[C@@H]1c1ccc(F)cc1 + CCN1C(C(=O)NC23CCC(C(=O)O)(CC2)CC3)C(c2cccc(Cl)c2F)C2(C(=O)Nc3cc(Cl)ccc32)C12CCCCC2 , its viability, T/C with NCI-H510 multicellular tumor spheroid growth, % test/control was recorded as 14.7

Considering COc1c(OCCCN2CCOCC2)ccc2c3n(c(=NC(=O)c4cnc(N)nc4)nc12)CCN3 + CCN1C(C(=O)NC23CCC(C(=O)O)(CC2)CC3)C(c2cccc(Cl)c2F)C2(C(=O)Nc3cc(Cl)ccc32)C12CCCCC2 , its viability, T/C with NCI-H510 multicellular tumor spheroid growth, % test/control was recorded as 98.4

----------
Could you please report measured viability, T/C for the items listed next?
tested on: NCI-H510 multicellular tumor spheroid growth, % test/control; assay: Anticancer human tumor NCI-H510 cell line growth inhibition [Asc]; conditions: second compound 0.03 µM; first compound 0.01 µM; stronger effect = lower value;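 note: spheroids exposed to agents for 7 days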;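 for viability, T/C: 100% = DMSO vehicle control wells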

Considering COc1c(OCCCN2CCOCC2)ccc2c3n(c(=NC(=O)c4cnc(N)nc4)nc12)CCN3 + CCN1C(C(=O)NC23CCC(C(=O)O)(CC2)CC3)C(c2cccc(Cl)c2F)C2(C(=O)Nc3cc(Cl)ccc32)C12CCCCC2 , its viability, T/C with NCI-H510 multicellular tumor spheroid growth, % test/control was recorded as 112%

Considering Cn1ncnc1[C@H]1c2n[nH]c(=O)c3cc(F)cc(c23)N[C@@H]1c1ccc(F)cc1 + CCN1C(C(=O)NC23CCC(C(=O)O)(CC2)CC3)C(c2cccc(Cl)c2F)C2(C(=O)Nc3cc(Cl)ccc32)C12CCCCC2 , its viability, T/C with NCI-H510 multicellular tumor spheroid growth, % test/control was recorded as 49.5%

Considering CNC(C)C(=O)NC1CN(S(=O)(=O)c2cccc(S(=O)(=O)N3CCC4CCC(C(=O)NC(c5ccccc5)c5ccccc5)N4C(=O)C(NC(=O)C(C)NC)C3)c2)CCC2CCC(C(=O)NC(c3ccccc3)c3ccccc3)N2C1=O (stereo unspecified) + CCN1C(C(=O)NC23CCC(C(=O)O)(CC2)CC3)C(c2cccc(Cl)c2F)C2(C(=O)Nc3cc(Cl)ccc32)C12CCCCC2 , its viability, T/C with NCI-H510 multicellular tumor spheroid growth, % test/control was recorded as 81.6%

Considering NC1CCC(NC2CC2c2ccccc2)CC1 (stereo unspecified) + CCN1C(C(=O)NC23CCC(C(=O)O)(CC2)CC3)C(c2cccc(Cl)c2F)C2(C(=O)Nc3cc(Cl)ccc32)C12CCCCC2 , its viability, T/C with NCI-H510 multicellular tumor spheroid growth, % test/control was recorded as 81.9%

Considering O=C(c1ccc(F)c(F)c1Nc1ccc(I)cc1F)N1CC(O)([C@@H]2CCCCN2)C1 + CCN1C(C(=O)NC23CCC(C(=O)O)(CC2)CC3)C(c2cccc(Cl)c2F)C2(C(=O)Nc3cc(Cl)ccc32)C12CCCCC2 , its viability, T/C with NCI-H510 multicellular tumor spheroid growth, % test/control was recorded as 126%

Considering CCN1CCN(Cc2ccc(Nc3ncc(F)c(-c4cc(F)c5nc(C)n(C(C)C)c5c4)n3)nc2)CC1 + CCN1C(C(=O)NC23CCC(C(=O)O)(CC2)CC3)C(c2cccc(Cl)c2F)C2(C(=O)Nc3cc(Cl)ccc32)C12CCCCC2 , its viability, T/C with NCI-H510 multicellular tumor spheroid growth, % test/control was recorded as 88%
